Here, each record is paired with measured PET hydrolysis product formed data.
Assay Method Text: PET hydrolysis product formed (TPA+MHET+BHET, UV-Vis) per mg enzyme (mmol/mg enzyme); higher = more PET depolymerisation activity; extreme values may be limits of the assay
Assay Setup: PET substrate: aFilm; 70 °C; pH 7.5; 2 h

Residues	PET hydrolysis product formed
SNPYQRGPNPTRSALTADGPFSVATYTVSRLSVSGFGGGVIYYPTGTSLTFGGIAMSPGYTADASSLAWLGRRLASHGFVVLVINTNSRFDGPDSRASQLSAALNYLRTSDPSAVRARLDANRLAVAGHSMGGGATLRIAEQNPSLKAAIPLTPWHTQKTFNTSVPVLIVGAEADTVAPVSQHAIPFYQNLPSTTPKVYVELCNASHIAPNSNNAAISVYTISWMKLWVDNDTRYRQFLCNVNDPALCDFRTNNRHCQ [LCC-ICCG DAQI]	0.189
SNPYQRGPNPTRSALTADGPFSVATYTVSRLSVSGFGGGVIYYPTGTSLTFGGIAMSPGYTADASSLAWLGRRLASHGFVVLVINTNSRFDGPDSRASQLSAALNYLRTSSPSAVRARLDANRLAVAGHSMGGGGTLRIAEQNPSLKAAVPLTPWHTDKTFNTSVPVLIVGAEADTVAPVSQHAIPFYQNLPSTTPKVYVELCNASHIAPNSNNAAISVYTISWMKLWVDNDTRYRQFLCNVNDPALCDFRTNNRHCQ [LCC-ICCG]	0.226
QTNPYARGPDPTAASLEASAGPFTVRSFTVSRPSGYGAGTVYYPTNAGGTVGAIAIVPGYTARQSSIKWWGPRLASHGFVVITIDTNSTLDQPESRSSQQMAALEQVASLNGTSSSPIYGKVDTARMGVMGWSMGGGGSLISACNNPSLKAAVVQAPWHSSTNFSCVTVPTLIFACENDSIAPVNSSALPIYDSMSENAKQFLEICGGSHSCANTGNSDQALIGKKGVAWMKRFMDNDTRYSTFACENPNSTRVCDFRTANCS [Z1-PETase]	0

====

Assay Method Text: terephthalic acid (TPA) released, HPLC; higher = more TPA released; extreme values may be limits of the assay
Assay Setup: PET substrate: aFilm; 70 °C; pH 6.5; 24 h

Residues	terephthalic acid
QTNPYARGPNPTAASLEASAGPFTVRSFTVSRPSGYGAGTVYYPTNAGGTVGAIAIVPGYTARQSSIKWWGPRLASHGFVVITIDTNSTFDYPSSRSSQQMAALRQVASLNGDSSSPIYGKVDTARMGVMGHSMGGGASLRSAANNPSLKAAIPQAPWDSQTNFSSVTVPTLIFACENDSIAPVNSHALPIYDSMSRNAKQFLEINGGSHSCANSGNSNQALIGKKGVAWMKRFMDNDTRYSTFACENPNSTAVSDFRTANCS [DuraPETase]	0 mM
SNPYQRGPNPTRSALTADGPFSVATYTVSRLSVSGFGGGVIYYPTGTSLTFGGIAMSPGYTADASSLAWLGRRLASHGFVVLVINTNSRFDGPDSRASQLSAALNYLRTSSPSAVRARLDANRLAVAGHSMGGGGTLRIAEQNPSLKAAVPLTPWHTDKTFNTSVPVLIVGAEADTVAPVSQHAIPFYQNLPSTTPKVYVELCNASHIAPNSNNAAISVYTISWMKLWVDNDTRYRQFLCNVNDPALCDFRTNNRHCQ [LCC-ICCG]	0.362 mM
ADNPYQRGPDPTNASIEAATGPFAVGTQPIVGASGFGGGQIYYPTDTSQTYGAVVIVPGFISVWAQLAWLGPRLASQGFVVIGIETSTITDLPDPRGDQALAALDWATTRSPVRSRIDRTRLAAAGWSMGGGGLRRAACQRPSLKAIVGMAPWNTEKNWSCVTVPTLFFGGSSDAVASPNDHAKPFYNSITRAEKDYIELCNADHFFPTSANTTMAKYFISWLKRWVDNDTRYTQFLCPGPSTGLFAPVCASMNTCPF [CaPETaseM9]	0 mM

====

Assay Method Text: PET hydrolysis product formed (TPA+MHET+BHET, UV-Vis) per mg enzyme (mmol/mg enzyme); higher = more PET depolymerisation activity; extreme values may be limits of the assay
Assay Setup: PET substrate: cryPow; 70 °C; pH 4.5; 2 h
Here, each record is paired with measured PET hydrolysis product formed data.
Reported Metric: PET hydrolysis product formed

Residues	Recorded Measurement
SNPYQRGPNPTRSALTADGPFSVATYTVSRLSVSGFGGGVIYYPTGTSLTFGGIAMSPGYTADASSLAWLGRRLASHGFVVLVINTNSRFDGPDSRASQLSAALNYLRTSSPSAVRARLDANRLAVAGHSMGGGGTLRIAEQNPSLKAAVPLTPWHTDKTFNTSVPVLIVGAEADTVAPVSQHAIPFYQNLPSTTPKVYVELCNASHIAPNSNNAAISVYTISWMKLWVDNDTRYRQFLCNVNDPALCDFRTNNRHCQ [LCC-ICCG]	0
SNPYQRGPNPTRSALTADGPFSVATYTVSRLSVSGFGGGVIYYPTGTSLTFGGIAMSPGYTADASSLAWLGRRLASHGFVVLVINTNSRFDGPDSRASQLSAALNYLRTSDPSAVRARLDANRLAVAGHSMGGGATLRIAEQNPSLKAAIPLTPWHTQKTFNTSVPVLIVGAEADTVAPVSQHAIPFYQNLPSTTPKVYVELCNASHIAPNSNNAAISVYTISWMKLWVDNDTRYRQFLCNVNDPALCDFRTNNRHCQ [LCC-ICCG DAQI]	0
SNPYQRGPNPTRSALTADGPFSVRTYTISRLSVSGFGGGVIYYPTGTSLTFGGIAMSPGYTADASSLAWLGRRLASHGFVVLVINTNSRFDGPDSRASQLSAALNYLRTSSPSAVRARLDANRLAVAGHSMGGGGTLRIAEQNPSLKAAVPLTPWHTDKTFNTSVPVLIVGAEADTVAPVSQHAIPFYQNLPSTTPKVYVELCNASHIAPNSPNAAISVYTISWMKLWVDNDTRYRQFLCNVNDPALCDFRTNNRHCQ [LCC-ICCG RIP]	0

====

Assay Method Text: MHET released, HPLC; higher = more MHET released; extreme values may be limits of the assay
Assay Setup: PET substrate: aFilm; 60 °C; pH 6.5; 24 h

Residues	MHET released, mM
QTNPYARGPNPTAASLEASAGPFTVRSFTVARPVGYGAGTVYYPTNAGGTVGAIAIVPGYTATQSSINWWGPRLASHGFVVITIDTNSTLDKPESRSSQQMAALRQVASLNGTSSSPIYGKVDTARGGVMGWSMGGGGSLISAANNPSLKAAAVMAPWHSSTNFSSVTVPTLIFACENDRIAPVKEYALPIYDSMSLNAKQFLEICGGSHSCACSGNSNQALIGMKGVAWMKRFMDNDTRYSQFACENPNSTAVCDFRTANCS [HotPETase]	0.534
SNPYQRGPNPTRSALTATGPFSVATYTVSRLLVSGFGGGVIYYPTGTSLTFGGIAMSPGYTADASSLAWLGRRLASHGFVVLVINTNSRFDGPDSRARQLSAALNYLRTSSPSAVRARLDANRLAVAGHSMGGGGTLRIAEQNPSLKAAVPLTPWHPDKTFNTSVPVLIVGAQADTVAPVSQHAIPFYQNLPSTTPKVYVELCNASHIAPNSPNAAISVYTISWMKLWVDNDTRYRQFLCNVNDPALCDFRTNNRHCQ [LCC-ICCG I6M]	0.534
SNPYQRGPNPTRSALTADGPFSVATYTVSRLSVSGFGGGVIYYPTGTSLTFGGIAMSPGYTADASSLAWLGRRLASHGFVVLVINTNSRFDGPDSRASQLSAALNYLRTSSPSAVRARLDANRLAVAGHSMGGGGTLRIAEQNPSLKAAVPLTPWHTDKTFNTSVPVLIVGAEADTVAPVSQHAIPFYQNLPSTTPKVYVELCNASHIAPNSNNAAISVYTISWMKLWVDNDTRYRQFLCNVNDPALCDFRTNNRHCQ [LCC-ICCG]	0.773
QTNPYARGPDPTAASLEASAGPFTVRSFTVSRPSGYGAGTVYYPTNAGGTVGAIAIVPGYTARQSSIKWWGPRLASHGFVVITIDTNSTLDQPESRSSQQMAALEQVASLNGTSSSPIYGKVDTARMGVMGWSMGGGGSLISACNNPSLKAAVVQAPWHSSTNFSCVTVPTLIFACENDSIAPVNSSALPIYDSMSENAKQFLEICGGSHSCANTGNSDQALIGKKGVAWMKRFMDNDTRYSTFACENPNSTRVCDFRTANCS [Z1-PETase]	0.321
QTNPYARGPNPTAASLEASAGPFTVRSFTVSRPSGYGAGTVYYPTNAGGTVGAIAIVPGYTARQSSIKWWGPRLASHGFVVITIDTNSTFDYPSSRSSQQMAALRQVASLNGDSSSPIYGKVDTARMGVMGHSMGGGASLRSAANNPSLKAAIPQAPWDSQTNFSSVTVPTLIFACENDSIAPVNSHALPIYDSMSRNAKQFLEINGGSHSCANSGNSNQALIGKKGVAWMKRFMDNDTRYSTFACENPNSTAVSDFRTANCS [DuraPETase]	0
